Readings of Ki for the listed compounds
Target: human growth hormone secretagogue receptor (hGHS-R1a) (Homo sapiens)
Sequence (Q92847 whole entry): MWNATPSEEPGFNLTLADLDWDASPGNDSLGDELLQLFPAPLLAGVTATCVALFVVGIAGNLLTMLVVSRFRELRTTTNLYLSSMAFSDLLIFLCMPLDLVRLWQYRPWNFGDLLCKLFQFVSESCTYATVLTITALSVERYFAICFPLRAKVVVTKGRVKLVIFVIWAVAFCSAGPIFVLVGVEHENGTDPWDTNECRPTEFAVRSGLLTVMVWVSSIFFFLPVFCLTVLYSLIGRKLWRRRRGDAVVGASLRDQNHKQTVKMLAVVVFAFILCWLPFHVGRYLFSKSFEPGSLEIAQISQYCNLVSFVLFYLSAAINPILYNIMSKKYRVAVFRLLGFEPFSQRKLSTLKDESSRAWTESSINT
Assay: Competitive radioligand binding assay (ghrelin receptor), standard method A
Settings: binding activity at the human ghrelin receptor, standard method A
Text: A competitive binding assay at the human growth hormone secretagogue receptor (hGHS-R1a) can be carried out analogously to assays described in the literature. (Bednarek, M. A.; et al. J. Med. Chem. 2000, 43, 4370-4376; Palucki, B. L.; et al. Bioorg. Med. Chem. Lett. […], 11, 1955-1957.) See also U.S. patent application Ser. Nos. 11/149,512 and 11/149,731. Binding activity at the gherlin receptor for representative compounds of the present invention is shown in the Examples below.
assay.metric: Ki

{"columns": ["compound", "assay.metric", "reported.measurement"],
 "data": [
  ["CC[C@H](C)[C@@H]1NC[C@@H](C)Oc2cccnc2CCCNC(=O)[C@@H](CC(C)C)NC(=O)[C@@H](C)N(C)C1=O [Compound 1000]", "Ki", "≤ 0.5 µM"],
  ["C[C@@H]1CN[C@@H](C2CC2)C(=O)N(C)[C@H](C)C(=O)N[C@H](c2ccc(O)cc2)C(=O)NCCCc2ccccc2O1 [Compound 1103]", "Ki", "> 0.5 µM"],
  ["CC1CNC(C2CCCCC2)C(=O)N(C)C(C)C(=O)NC(Cc2ccc(O)cc2)C(=O)NCCCC2CCCCC2O1 (mixture of isomers) [Compound 829]", "Ki", "≤ 0.001 µM"],
  ["CC(C)C[C@H]1NC(=O)[C@@H](C)N(C)C(=O)[C@H](C2CC2)NC[C@@H](C)Oc2ccccc2CCCNC1=O [Compound 968]", "Ki", "≤ 0.1 µM"],
  ["C[C@@H]1C(=O)N[C@H](Cc2ccccc2)C(=O)NCCCc2cccc3c2OC(CC3)CN[C@@H](C2CC2)C(=O)N1C (stereo partly drawn) [Compound 874]", "Ki", "≤ 0.1 µM"],
  ["CC(C)CC1NC(=O)C(C)N(C)C(=O)C(C2CC2)NCCOc2cccc(F)c2CCCNC1=O (stereo not drawn) [Compound 1111]", "Ki", "≤ 0.1 µM"]
]}
